IC50 values recorded for VEGFR2 (Homo sapiens (Human))
Field: numeric (nM). Do not append units.

O=C(Nc1ccc(C2CN=C3c4ccccc4NC(=O)N3C2)cc1)Nc1cccc(Br)c1 (stereo not shown)	250
O=C(Nc1cccc(C2CN=C3c4ccccc4NC(=O)N3C2)c1)Nc1cc(C(F)(F)F)ccc1F (stereo not shown)	760
Cc1cccc(NC(=O)Nc2ccc(C3CN=C4c5ccccc5NC(=O)N4C3)c(C)c2)c1 (stereo not shown)	1500

Now turn to the next compound.
Query: Returns the measured IC50 for the input compound. Input: O=C(Nc1ccc(C2CN=C3c4ccccc4NC(=O)N3C2)cc1)Nc1cc(C(F)(F)F)ccc1F (stereo not shown)
Result: 360

---

subject_of_test: VEGFR2 (Homo sapiens (Human), UniProt P35968)
Sequence (P35968 786-1356): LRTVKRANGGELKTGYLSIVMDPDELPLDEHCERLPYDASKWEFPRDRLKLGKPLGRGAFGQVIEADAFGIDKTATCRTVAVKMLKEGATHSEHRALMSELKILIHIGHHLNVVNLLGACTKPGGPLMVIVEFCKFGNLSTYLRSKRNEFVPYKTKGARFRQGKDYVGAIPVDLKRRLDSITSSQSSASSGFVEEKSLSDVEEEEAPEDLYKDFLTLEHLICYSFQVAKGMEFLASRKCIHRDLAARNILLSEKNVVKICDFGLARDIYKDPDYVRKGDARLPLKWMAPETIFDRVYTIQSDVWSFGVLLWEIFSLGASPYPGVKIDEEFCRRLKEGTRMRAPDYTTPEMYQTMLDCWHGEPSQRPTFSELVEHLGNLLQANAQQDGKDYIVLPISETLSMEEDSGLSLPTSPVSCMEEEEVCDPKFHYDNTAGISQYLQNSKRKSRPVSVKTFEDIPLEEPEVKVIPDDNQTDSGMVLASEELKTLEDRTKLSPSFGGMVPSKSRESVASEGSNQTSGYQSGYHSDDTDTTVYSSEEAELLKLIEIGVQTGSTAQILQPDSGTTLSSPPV
test_summary: VEGFR2 Kinase Assay (biochemical KDR kinase assay, poly-Glu-Tyr ELISA)
run_parameters: statement in words on the Table 2 data
readout_type: VEGFR2 potency as shown in this assay (in words)

Worked cases, answers included:
Cc1cccc(NC(=O)Nc2ccc(C3CN=C4c5ccccc5NC(=O)N4C3)cc2)c1 (stereo not drawn)	excellent VEGFR2 potency
O=C(Nc1ccc(C2CN=C3c4ccccc4NC(=O)N3C2)cc1)Nc1cc(C(F)(F)F)ccc1F (stereo not drawn)	excellent VEGFR2 potency
O=C(Nc1ccc(C2CN=C3c4ccccc4NC(=O)N3C2)cc1)Nc1ccc(Cl)c(C(F)(F)F)c1 (stereo not drawn)	excellent VEGFR2 potency
CC(C)NC(=O)Nc1ccc(C2CN=C3c4ccccc4NC(=O)N3C2)cc1 (stereo not drawn)	lack of potency
CN1CCN(CC(=O)Nc2ccc(C3CN=C4c5ccccc5NC(=O)N4C3)cc2)CC1 (stereo not drawn)	lack of potency

Query: Which VEGFR2 potency as shown in this assay (in words) reading was recorded for the molecule COC(=O)c1ccc2c(c1)NC(=O)N1CC(c3ccc(N(C)C(=O)CN4CCN(C)CC4)cc3)CN=C21 (stereo not drawn) ?
Result: lack of potency

Query: What do we get for O=C(Nc1ccc(C2CN=C3c4ccccc4NC(=O)N3C2)cc1)Nc1cccc(Br)c1 (stereo not drawn) ?
Result: excellent VEGFR2 potency

Query: Next record, please: Cc1ccoc1C(=O)Nc1cccc(C2CN=C3c4ccccc4NC(=O)N3C2)c1 (stereo not drawn)
Result: excellent VEGFR2 potency

Query: Record: O=C(Nc1cccc(C2CN=C3c4ccccc4NC(=O)N3C2)c1)Nc1cc(C(F)(F)F)ccc1F (stereo not drawn)
Result: excellent VEGFR2 potency

---

subject_of_test: VEGFR2 (Homo sapiens (Human))
readout_type: pIC50
Expect pIC50 as a plain number equal to -log10 of the molar concentration.

Here's what some known entries look like.
CSc1cccc(NC(=O)Nc2ccc(C3CN=C4c5ccccc5NC(=O)N4C3)cc2)c1 (stereo not drawn) [Example 8]	5.74
Cc1ccc(NC(=O)Nc2ccc(C3CN=C4c5ccccc5NC(=O)N4C3)cc2)cc1 (stereo not drawn) [Example 11]	5.39

Next item in the queue.
Query: Record request: pIC50 value, item O=C(Nc1ccccc1)Nc1ccc(C2CN=C3c4ccccc4NC(=O)N3C2)cc1 (stereo not drawn) [Example 6]
Result: 5.32

---

subject_of_test: VEGFR2 (Homo sapiens (Human))
pIC50: −log10 of the molar value.
readout_type: pIC50

Cc1cc(C2CN=C3c4ccccc4NC(=O)N3C2)ccc1N (stereo not drawn)	< 5.00
Nc1cccc(C2CN=C3c4ccccc4NC(=O)N3C2)c1 (stereo not drawn)	< 5.00

Now turn to the next compound.
Query: Bench note: what pIC50 did CN1CCN(CC(=O)Nc2ccc(C3CN=C4c5ccccc5NC(=O)N4C3)cc2)CC1 (stereo not drawn) show?
Result: < 5.00
